Data origin: ChEMBL document CHEMBL2177095

# IC50 per record follows
Test: Inhibition of Streptococcus pneumoniae thymidylate kinase assessed as effect on conversion of dTDP to dTMP by luciferin/luciferase reporter gene based assay
measured.property: IC50 (µM)

>>> value_reported("Cc1cn([C@H]2CCCN([C@H](CC34CC5CC(CC(C5)C3)C4)c3ccc(C(=O)O)c(Oc4cccc(Br)c4)c3)C2)c(=O)[nH]c1=O")
0.0001
>>> value_reported("Cc1cn([C@H]2CCCN(Cc3ccc(C(=O)O)c(Oc4cccc(F)c4)c3)C2)c(=O)[nH]c1=O")
0.028
>>> value_reported("Cc1cccc(Oc2cc(CN3CCC[C@H](n4cc(C)c(=O)[nH]c4=O)C3)ccc2C(=O)O)c1")
0.008
>>> value_reported("Cc1cn([C@H]2CCCN(Cc3cccc(Oc4ccc(Cl)c(Cl)c4)c3)C2)c(=O)[nH]c1=O")
0.4
>>> value_reported("Cc1cn(C2CCCN(Cc3cccc(Oc4ccc(Cl)cc4)c3)C2)c(=O)[nH]c1=O (racemic)")
1.3
>>> value_reported("Cc1cn([C@H]2CCCN(Cc3ccc(C(=O)O)c(Oc4cccc(Cl)c4)c3)C2)c(=O)[nH]c1=O")
0.0019
>>> value_reported("Cc1cn([C@H]2CCCN(Cc3cccc(Oc4cccc(Cl)c4)c3)C2)c(=O)[nH]c1=O")
0.15
>>> value_reported("Cc1cn(C2CCCN(Cc3cccc(Oc4cccc(C(F)(F)F)c4)c3)C2)c(=O)[nH]c1=O (racemic)")
15
>>> value_reported("Cc1ccc(Oc2cccc(CN3CCCC(n4cc(C)c(=O)[nH]c4=O)C3)c2)cc1 (racemic)")
6
>>> value_reported("COc1ccc(Oc2cccc(CN3CCCC(n4cc(C)c(=O)[nH]c4=O)C3)c2)cc1 (racemic)")
9
>>> value_reported("Cc1cn([C@H]2CCCN(Cc3cccc(Oc4cc(F)cc(Cl)c4)c3)C2)c(=O)[nH]c1=O")
0.1
>>> value_reported("Cc1cn([C@H]2CCCN([C@H](C)c3ccc(C(=O)O)c(Oc4cccc(Cl)c4)c3)C2)c(=O)[nH]c1=O")
0.0003
>>> value_reported("CC[C@@H](c1ccc(C(=O)O)c(Oc2cccc(Cl)c2)c1)N1CCC[C@H](n2cc(C)c(=O)[nH]c2=O)C1")
0.003
>>> value_reported("Cc1cn([C@@H]2CCCN(Cc3cccc(Oc4ccc(Cl)cc4)c3)C2)c(=O)[nH]c1=O")
5.1
>>> value_reported("CCC(CC)C[C@H](c1ccc(C(=O)O)c(Oc2cccc(Cl)c2)c1)N1CCC[C@H](n2cc(C)c(=O)[nH]c2=O)C1")
0.0001
>>> value_reported("Cc1cn([C@H]2CCCN(Cc3ccc(C(=O)O)c(Oc4cccc(Br)c4)c3)C2)c(=O)[nH]c1=O")
0.001
>>> value_reported("Cc1cn([C@H]2CCCN(Cc3cccc(Oc4cccc(Br)c4)c3)C2)c(=O)[nH]c1=O")
0.1
>>> value_reported("CC[C@H](c1ccc(C(=O)O)c(Oc2cccc(Cl)c2)c1)N1CCC[C@H](n2cc(C)c(=O)[nH]c2=O)C1 (racemic)")
0.0006
>>> value_reported("Cc1cn([C@@H]2CCCN(Cc3cccc(Oc4ccc(Cl)c(Cl)c4)c3)C2)c(=O)[nH]c1=O")
18
>>> value_reported("Cc1cn([C@H]2CCCN([C@@H](CC(C)(C)C)c3ccc(C(=O)O)c(Oc4cccc(Br)c4)c3)C2)c(=O)[nH]c1=O")
0.0006
